Target System: IL-2 receptor on IL-2 reporter HEK blue cells (Human IL-2 & IL-15 Reporter Cells, hkb-il2bg)
Sequence (P14784 whole entry, chain 1 of 2): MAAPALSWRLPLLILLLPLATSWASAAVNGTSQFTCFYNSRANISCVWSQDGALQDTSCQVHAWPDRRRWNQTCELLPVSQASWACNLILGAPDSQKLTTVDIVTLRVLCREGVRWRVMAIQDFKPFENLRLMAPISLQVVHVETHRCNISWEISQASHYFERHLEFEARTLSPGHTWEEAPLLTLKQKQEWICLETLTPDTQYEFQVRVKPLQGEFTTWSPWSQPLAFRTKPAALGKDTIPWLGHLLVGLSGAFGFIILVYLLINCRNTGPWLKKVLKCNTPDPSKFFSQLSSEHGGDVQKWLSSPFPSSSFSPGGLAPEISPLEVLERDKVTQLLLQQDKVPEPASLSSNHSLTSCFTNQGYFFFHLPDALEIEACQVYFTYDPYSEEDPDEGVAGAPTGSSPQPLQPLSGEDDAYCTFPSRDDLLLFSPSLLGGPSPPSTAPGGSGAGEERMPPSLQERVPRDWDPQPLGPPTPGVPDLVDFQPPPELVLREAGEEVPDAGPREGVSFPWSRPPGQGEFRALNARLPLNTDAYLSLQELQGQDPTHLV
Sequence (P31785 whole entry, chain 2 of 2, further chain): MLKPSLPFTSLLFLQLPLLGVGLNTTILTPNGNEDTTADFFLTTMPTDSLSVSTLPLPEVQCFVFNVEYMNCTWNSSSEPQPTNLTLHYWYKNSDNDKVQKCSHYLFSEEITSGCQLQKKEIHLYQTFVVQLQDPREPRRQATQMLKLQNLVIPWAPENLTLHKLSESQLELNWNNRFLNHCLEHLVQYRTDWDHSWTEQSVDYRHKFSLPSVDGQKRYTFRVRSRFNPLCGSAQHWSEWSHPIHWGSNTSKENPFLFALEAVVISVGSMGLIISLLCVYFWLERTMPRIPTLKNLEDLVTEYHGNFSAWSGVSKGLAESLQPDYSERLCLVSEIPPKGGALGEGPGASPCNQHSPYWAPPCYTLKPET
Protocol Text: cell-based or functional assay
Value Kind: EC-50 (IL-2 reporter HEK blue cells, SEAP, absorbance 630 nm)

# Binder, Result Value
measured = [
    ("ORK2-011 (foldikine-2, two 8 aa InterLinkers GGGSGGGG) (ligand) LRPRDLISNINVIVLELKGSETTFMCEYADETATIVEFLNRWITFCQSIISTLTGGGSGGGGTKKTQLQLEHLLLDLQMILNGINNYKNPKLTRMLTFKFYMPKKATELKHLQCLEEELKPLEEVLNLAQSKNFHLRPRDLISNINVIVLELKGSETTFMCEYADETATIVEFLNRWITFCQSIISTLTGGGSGGGGTKKTQLQLEHLLLDLQMILNGINNYKNPKLTRMLTFKFYMPKKATELKHLQCLEEELKPLEEVLNLAQS", "171 pM"),
    ("ORK2-010 (foldikine-2, two 7 aa InterLinkers GGGSGGG) (ligand) LRPRDLISNINVIVLELKGSETTFMCEYADETATIVEFLNRWITFCQSIISTLTGGGSGGGTKKTQLQLEHLLLDLQMILNGINNYKNPKLTRMLTFKFYMPKKATELKHLQCLEEELKPLEEVLNLAQSKNFHLRPRDLISNINVIVLELKGSETTFMCEYADETATIVEFLNRWITFCQSIISTLTGGGSGGGTKKTQLQLEHLLLDLQMILNGINNYKNPKLTRMLTFKFYMPKKATELKHLQCLEEELKPLEEVLNLAQS", "190 pM"),
    ("ORK2-009 (foldikine-2, two 6 aa InterLinkers GGGSGG) (ligand) LRPRDLISNINVIVLELKGSETTFMCEYADETATIVEFLNRWITFCQSIISTLTGGGSGGTKKTQLQLEHLLLDLQMILNGINNYKNPKLTRMLTFKFYMPKKATELKHLQCLEEELKPLEEVLNLAQSKNFHLRPRDLISNINVIVLELKGSETTFMCEYADETATIVEFLNRWITFCQSIISTLTGGGSGGTKKTQLQLEHLLLDLQMILNGINNYKNPKLTRMLTFKFYMPKKATELKHLQCLEEELKPLEEVLNLAQS", "211 pM"),
]

The reported measurements were obtained from patent US20260008830A1.
